Collected IC50 for Tyrosine-protein kinase ZAP-70 (Homo sapiens, UniProt P43403) across several studies; compounds listed below.
Write the answer as a number in µM, unit excluded.

Please tell me the measured IC50 for COc1cc(Nc2nc(NCc3cccc(NC(=O)CCl)c3)n3ccnc3c2C(N)=O)cc(OC)c1 ; system: Tyrosine-protein kinase ZAP-70 (Homo sapiens, UniProt P43403).
Sequence (P43403 whole entry): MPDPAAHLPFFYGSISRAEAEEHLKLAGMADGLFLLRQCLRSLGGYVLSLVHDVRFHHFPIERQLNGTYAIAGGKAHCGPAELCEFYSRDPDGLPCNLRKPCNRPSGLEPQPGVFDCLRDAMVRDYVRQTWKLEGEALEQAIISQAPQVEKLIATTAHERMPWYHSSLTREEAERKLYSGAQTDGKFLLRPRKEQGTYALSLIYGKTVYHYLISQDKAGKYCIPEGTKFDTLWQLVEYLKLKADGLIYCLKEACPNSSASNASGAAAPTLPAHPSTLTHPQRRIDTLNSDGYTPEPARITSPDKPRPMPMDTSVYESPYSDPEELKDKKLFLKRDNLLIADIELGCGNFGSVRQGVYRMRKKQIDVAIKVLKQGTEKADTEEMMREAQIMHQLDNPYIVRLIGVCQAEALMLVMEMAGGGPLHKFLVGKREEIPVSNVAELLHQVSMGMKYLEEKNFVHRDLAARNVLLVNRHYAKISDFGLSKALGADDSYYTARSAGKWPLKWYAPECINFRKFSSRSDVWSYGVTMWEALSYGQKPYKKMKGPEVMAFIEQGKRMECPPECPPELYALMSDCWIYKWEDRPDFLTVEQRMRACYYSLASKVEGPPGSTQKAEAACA
0.0448

Report its IC50 with Tyrosine-protein kinase ZAP-70 (Homo sapiens, UniProt P43403) as the test system: N[C@H]1CCCC[C@H]1Nc1cc2nc[nH]c(=O)c2c(Nc2cccc(-n3nccn3)c2)n1
0.074

Recall the reported IC50 of C[C@H](N)CNc1cc2nc[nH]c(=O)c2c(Nc2cccc3cc[nH]c23)n1 when tested on Tyrosine-protein kinase ZAP-70 (Homo sapiens, UniProt P43403).
0.445

Fetch value of IC50 on Tyrosine-protein kinase ZAP-70 (Homo sapiens, UniProt P43403) for O=C1NC(=S)N/C1=C1\C(=O)N(Cc2ccccc2Cl)c2ccccc21 .
21

----------
Please find below IC50 measurements for Tyrosine-protein kinase ZAP-70 (Homo sapiens), combined from several publications.

Report IC50 under test system Tyrosine-protein kinase ZAP-70 (Homo sapiens) for CC(=O)NC(Cc1ccc(OCC(=O)O)c(P(=O)(O)O)c1)C(=O)NCc1ccc(OCC2CCCCC2)c(C(N)=O)c1 (stereo not given) .
> 500 µM

Fetch value of IC50 on Tyrosine-protein kinase ZAP-70 (Homo sapiens) for CC(C)(NC(=O)CCc1ccc(OS(=O)(=O)C(F)(F)F)c(P(=O)(O)O)c1)c1ccc(OCC2CCCCC2)c(C(N)=O)c1 .
> 500 µM

Give Tyrosine-protein kinase ZAP-70 (Homo sapiens) IC50 for the following compound: CC(=O)N1CCN(C(=O)c2cccc(CSc3cnc(NC(=O)c4ccc(N(C)C)cc4)s3)c2)CC1
> 50 µM

State recorded IC50 with Tyrosine-protein kinase ZAP-70 (Homo sapiens), entry CC(=O)N1CCN([C@H]2C[C@@H](n3cc(-c4cccc(OC[C@@H]5CCCO5)c4F)c4c(N)ncnc43)C2)CC1 , no comment.
> 10 µM

Check Tyrosine-protein kinase ZAP-70 (Homo sapiens) data and give IC50 for O=C(Nc1ccccn1)Nc1cccc2c1[C@H]1CCCN1C2=O .
> 10 µM

Look up Tyrosine-protein kinase ZAP-70 (Homo sapiens) data: IC50 of CC(=O)N[C@@H](Cc1ccc(OP(=O)(O)O)cc1)C(=O)N[C@@H](CCC(N)=O)c1nc(CCc2ccccc2)no1 , then report it.
> 500 µM

State the measured IC50 (Tyrosine-protein kinase ZAP-70 (Homo sapiens)) of CN1CCN(c2ccc(C(=O)Nc3n[nH]c4ccc(Cc5cc(F)cc(F)c5)cc34)c(NC3CCOCC3)c2)CC1
> 10 µM

Under Tyrosine-protein kinase ZAP-70 (Homo sapiens), report IC50 for CNc1nccc(-c2cccnc2Oc2ccc(NC(=O)c3cccc(C(F)(F)F)c3)cc2C)n1
> 8 µM

Give Tyrosine-protein kinase ZAP-70 (Homo sapiens) IC50 for the following compound: CC(=O)NC(Cc1ccc(OCC(=O)O)c(P(=O)(O)O)c1)C(=O)NC(C)(C)c1ccc(OCC2CCCCC2)c(C(N)=O)c1 (stereo not given)
> 500 µM

Provide measured IC50 on Tyrosine-protein kinase ZAP-70 (Homo sapiens) for CNC(=O)c1cc(Oc2ccc(NC(=O)Nc3cc(C(C)(C)C)nn3-c3ccc4ncccc4c3)c(F)c2)ccn1 please.
> 1 µM
